# Target of assay: T1, recombinant LILRB1 ECD (human, UniProt Q8NHL6 24-461)
# T1 construct: also called biotinylated LILRB1 ECD
# T1 sequence (Q8NHL6 24-461 limits assumed): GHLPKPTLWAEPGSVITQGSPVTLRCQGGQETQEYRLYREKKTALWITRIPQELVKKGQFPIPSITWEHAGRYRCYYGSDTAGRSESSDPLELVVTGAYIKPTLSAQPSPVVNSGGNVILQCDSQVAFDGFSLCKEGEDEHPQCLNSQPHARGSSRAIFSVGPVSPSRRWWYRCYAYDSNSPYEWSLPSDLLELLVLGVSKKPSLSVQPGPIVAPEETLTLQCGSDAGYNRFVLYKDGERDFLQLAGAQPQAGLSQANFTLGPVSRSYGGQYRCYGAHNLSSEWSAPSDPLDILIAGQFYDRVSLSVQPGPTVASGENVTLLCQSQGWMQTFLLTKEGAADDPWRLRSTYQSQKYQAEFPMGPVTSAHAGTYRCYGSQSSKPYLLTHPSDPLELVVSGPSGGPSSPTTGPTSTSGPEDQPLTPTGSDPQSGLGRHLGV
# Method: ELISA, LILRB1 ECD binding to HLA-G-Fc
pIC50: −log10 of the molar value.
Measured pIC50 values are reported for all entries that follow.

{"columns": ["Binder", "pIC50"],
 "data": [
  ["A-015 (antibody, V domains shown, tested as IgG) VH: QVQLVQSGAEVKKPGSSVKVSCKASGGSFQSYAINWVRQAPGQGLEWMGGIIPGFSTANYAQKFQGRVTITADESTSTAYMELSSLRSEDTAVYYCAKDLGTYSSGWPYYYGMDVWGQGTTVTVSS VL: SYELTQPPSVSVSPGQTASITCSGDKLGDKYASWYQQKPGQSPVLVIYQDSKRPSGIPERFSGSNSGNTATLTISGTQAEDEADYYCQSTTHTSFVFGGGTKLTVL", 8.36],
  ["A-046 (antibody, V domains shown, tested as IgG) VH: QVQLVQSGAEVKKPGSSVKVSCKASGGSFQSYAINWVRQAPGQGLEWMGGIIPGFSTANYAQKFQGRVTITADESTSTAYMELSSLRSEDTAVYYCAKDLGTYSSGWPYYYGMDVWGQGTTVTVSS VL: SYELTQPPSVSVSPGQTASITCSGDKLGDKYASWYQQKPGQSPVLVIYQDSKRPSGIPERFSGSNSGNTATLTISGTQAEDEADYYCQLTHLTIYVFGGGTKLTVL", 8.70]
]}
